Assign hGluc-R EC50 (pM), cAMP to each entry below.
target.under.test: human glucagon receptor (human, UniProt P47871 26-477)
Sequence (P47871 26-477): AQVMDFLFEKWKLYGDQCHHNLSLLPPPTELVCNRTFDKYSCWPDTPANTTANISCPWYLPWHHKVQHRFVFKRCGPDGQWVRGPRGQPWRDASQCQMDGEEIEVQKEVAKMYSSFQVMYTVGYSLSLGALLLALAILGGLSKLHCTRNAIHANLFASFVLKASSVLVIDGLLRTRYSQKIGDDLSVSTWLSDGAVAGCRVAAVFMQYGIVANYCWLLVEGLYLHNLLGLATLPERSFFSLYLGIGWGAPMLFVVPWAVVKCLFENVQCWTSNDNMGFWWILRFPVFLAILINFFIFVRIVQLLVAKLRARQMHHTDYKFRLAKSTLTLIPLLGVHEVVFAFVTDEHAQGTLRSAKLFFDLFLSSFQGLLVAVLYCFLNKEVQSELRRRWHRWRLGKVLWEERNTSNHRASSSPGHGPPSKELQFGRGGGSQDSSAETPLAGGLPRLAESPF
assay.comment: cell-based or functional assay
Starred links: 1 amine or outer side, 2 acyl side, 3 side chain; linkers in the order of their positions; H or OH if unused. Non-standard residues stand in square brackets, D forms with d. Groups on a side chain read outwards from the residue. No end group written: not given here. *: point of attachment. C20 diacid = O=C(O)CCCCCCCCCCCCCCCCCCC(=O)*; C18 diacid = O=C(O)CCCCCCCCCCCCCCCCC(=O)*; γGlu = O=C(O)[C@H](CCC(=O)[*:2])N[*:1]; αMeF = C[C@](N)(Cc1ccccc1)C(=O)O; AEEA = NCCOCCOCC(=O)O; Aib = CC(C)(N)C(=O)O

query: Entry H[Aib]HGS[αMeF]TSDVSK[αMeF]LDSR[Aib]AK([AEEA-AEEA-γGlu-γGlu-C18 diacid])D[αMeF]VESIANT-NH2 [Peptide 250] has what hGluc-R EC50 (pM), cAMP?
result: 1570 pM

query: Entry H[Aib]HGS[αMeF]TSDVSK[αMeF]LDSRAAK([AEEA-AEEA-γGlu-γGlu-C20 diacid])D[αMeF]VQ[Aib]IANT-NH2 (not fully specified) [Peptide 305] has what hGluc-R EC50 (pM), cAMP?
result: 155 pM

query: Entry H[Aib]HGS[αMeF]TSDVSK[αMeF]LDSRAAK([AEEA-AEEA-γGlu-γGlu-C20 diacid])D[αMeF]VQ[Aib]IANT-OH [Peptide 304] has what hGluc-R EC50 (pM), cAMP?
result: 687 pM

query: Entry H[Aib]HGS[αMeF]TSDVSK[αMeF]LDSRAAK([γGlu-C20 diacid])D[αMeF]VQ[Aib]IANT-NH2 [Peptide 276] has what hGluc-R EC50 (pM), cAMP?
result: 91.4 pM

query: Entry H[Aib]HGS[αMeF]TSDVSK[αMeF]LDSRAAK([AEEA-AEEA-γGlu-γGlu-C20 diacid])D[αMeF]VQ[Aib]IANT-NH2 (also: S2: Aib per table, X6: αMePhe, F per table) [Peptide 282] has what hGluc-R EC50 (pM), cAMP?
result: 1140 pM

query: Entry H[Aib]HGS[αMeF]TSDVSK[αMeF]LDSRAAK([AEEA-γGlu-γGlu-C20 diacid])D[αMeF]VQ[Aib]IANT-NH2 [Peptide 279] has what hGluc-R EC50 (pM), cAMP?
result: 150 pM

query: Entry H[Aib]HGS[αMeF]TSDVSK[αMeF]LDSQAAK([AEEA-AEEA-γGlu-γGlu-C20 diacid])D[αMeF]VQ[Aib]IANT-NH2 [Peptide 256] has what hGluc-R EC50 (pM), cAMP?
result: 1310 pM

query: Entry H[Aib]HGS[αMeF]TSDVSK[αMeF]LDSR[Aib]AK([AEEA-AEEA-γGlu-C18 diacid])DFVESIANT-NH2 (not fully specified) [Peptide 251] has what hGluc-R EC50 (pM), cAMP?
result: 248 pM

query: Entry H[Aib]HGS[αMeF]TSDVSK[αMeF]LDSRAAK([AEEA-AEEA-C18 diacid])D[αMeF]VQ[Aib]IANT-NH2 [Peptide 272] has what hGluc-R EC50 (pM), cAMP?
result: 14.3 pM

query: Entry H[Aib]HGS[αMeF]TSDVSK[αMeF]LDSR[Aib]AK([AEEA-AEEA-γGlu-γGlu-C20 diacid])DFVQ[Aib]IANT-NH2 (not fully specified) [Peptide 221] has what hGluc-R EC50 (pM), cAMP?
result: 123 pM

query: Entry H[Aib]QGS[αMeF]TSDVSK[αMeF]LDSRAAK([AEEA-AEEA-γGlu-γGlu-C20 diacid])D[αMeF]VQ[Aib]IANT-NH2 [Peptide 322] has what hGluc-R EC50 (pM), cAMP?
result: > 24700 pM

query: Entry H[Aib]HGS[αMeF]TSDVSK[αMeF]LDSR[Aib]AK([AEEA-γGlu-C18 diacid])DFVESIANT-NH2 [Peptide 253] has what hGluc-R EC50 (pM), cAMP?
result: 53.1 pM

query: Entry H[Aib]HGS[αMeF]TSDVSK[αMeF]LDSRAAK([AEEA-AEEA-γGlu-C20 diacid])D[αMeF]VQ[Aib]IANT-NH2 [Peptide 280] has what hGluc-R EC50 (pM), cAMP?
result: 155 pM
